Hello, the source for this data is paper PMC10269165, in case you need it.

# TARGET: TcPMT (Toxocara canis, UniProt A0A0B2VTW9)
# Sequence (A0A0B2VTW9 entry or part of it): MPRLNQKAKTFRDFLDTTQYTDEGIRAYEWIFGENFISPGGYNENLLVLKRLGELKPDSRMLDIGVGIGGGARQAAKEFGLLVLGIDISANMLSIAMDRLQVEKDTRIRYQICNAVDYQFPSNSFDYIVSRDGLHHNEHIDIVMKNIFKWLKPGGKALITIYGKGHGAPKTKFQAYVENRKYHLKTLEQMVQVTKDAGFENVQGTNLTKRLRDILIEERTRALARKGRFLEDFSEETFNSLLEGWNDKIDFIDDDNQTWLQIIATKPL
# METHOD NOTES: biochemical
# Assay type: biochemical
# DETAILS: read-out: Mean IC50 ± SEM, Enzyme TcPMT
# maps each entry to its IC50
State the answer as a number, implicitly in µM.

// below: answered compounds
Short answer please: IC50, TcPMT (Toxocara canis, UniProt A0A0B2VTW9), entry `CO[C@@H]1/C=C\O[C@]2(C)Oc3c(C)c(O)c4c(O)c(c(CN(C)C)c(O)c4c3C2=O)NC(=O)/C(C)=C\C=C[C@@H](C)[C@@H](O)[C@H](C)[C@@H](O)[C@H](C)[C@H](OC(C)=O)[C@@H]1C`
109

Short answer please: IC50, TcPMT (Toxocara canis, UniProt A0A0B2VTW9), entry `O=c1c(O)cccc2cc(O)c(O)c(O)c12`
45.9

Short answer please: IC50, TcPMT (Toxocara canis, UniProt A0A0B2VTW9), entry `CO[C@H]1/C=C/O[C@@]2(C)Oc3c(C)c(O)c4c(O)c(cc(O)c4c3C2=O)NC(=O)/C(C)=C\C=C\[C@H](C)[C@H](O)[C@@H](C)[C@@H](O)[C@@H](C)[C@H](OC(C)=O)[C@@H]1C`
99.1

Short answer please: IC50, TcPMT (Toxocara canis, UniProt A0A0B2VTW9), entry `CO[C@@H]1/C=C/O[C@@]2(C)Oc3c(C)c(O)c4c(c3C2=O)C(=N[C@@H]2CC[C@@H](O)O[C@H]2C)C=C(NC(=O)/C(C)=C\C(=O)[C@@H]2C[C@@H]2[C@H](O)[C@@H](C)[C@@H](O)[C@@H](C)[C@H](OC(C)=O)[C@@H]1C)C4=O`
41.3

Short answer please: IC50, TcPMT (Toxocara canis, UniProt A0A0B2VTW9), entry `COc1ccc(-c2c(C)c(C(=O)O)nc(-c3ccc4c(O)c(OC)c5c(c4n3)=NC(C)(C)N=5)c2N)c(O)c1OC`
27.6

API: the following record is the query input.
Short answer please: IC50, TcPMT (Toxocara canis, UniProt A0A0B2VTW9), entry COc1cc(C)c2c(c1C=O)Oc1c(c(C)c(O)c3c1C(O)OC3=O)OC2=O (stereo not drawn)
496
